Test system: HTT mRNA
Test: Splicing assay (RT-qPCR) of HTT mRNA alternative junction (AJ) and canonical junction (CJ)
Format: cell-based
Conditions: decrease in CJ mRNA; A673 or K562 cells, 24 hours; read-out: HTT CJ IC50
metric.name: IC50

Recorded IC50, per entry:
molecule: Cn1cc2c(O)c(-c3cc4ccc(C5CCNCC5)nc4cn3)ccc2n1
target.desc: HTT mRNA
IC50: 1 to 10 µM

molecule: Cn1cc2nc(-c3ccc4nc(C5CCNCC5)ccc4n3)c(F)cc2n1
target.desc: HTT mRNA
IC50: 1 to 10 µM

molecule: Cn1cc2cc(-c3ccc4nc(N5CC(C)(C)NC(C)(C)C5)ccc4n3)c(O)cc2n1
target.desc: HTT mRNA
IC50: > 10 µM

Now, please, on to the next molecule.
IN: Value lookup for IC50; key = Cn1cc2nc(-c3ccc4nc(N5CCC(NC(C)(C)C)C5)ccc4n3)c(F)cc2n1 (centres unmarked)
OUT: 1 to 10 µM

###

System: SMN2 CJ mRNA
Assay: Gene panel canonical junction qPCR splicing assay, SMN2
Type: cell-based
Conditions: Table 4, read-out: SMN2 IC50 (decrease in CJ mRNA levels)
Description: Compounds described herein were used to modulate RNA transcript abundance in cells. The expression of a target mRNA was measured by detecting the formation of an exon-exon junction in the canonical transcript (CJ). A compound mediated exon-inclusion event was detected by observing an increase in formation of a new junction with an alternative exon (AJ). […] After treatment, the levels of the HTT mRNA targets were determined from each sample of cell lysate by cDNA synthesis followed by qPCR. […]
pIC50: −log10 of the molar value.
metric.name: pIC50

Recorded pIC50, per entry:
compound: Cn1cc2c(O)c(-c3cc4ccc(C5CCNCC5)nc4cn3)cc(Br)c2n1
metric.name: pIC50
observed: 6.00 to 7.00
--
compound: CN(C)C1CCN(c2ccc3nc(-c4cc5cn(C)nc5cc4O)ccc3n2)C1 (centres unmarked)
metric.name: pIC50
observed: > 7.00
--
compound: Cn1cc2cc(-c3ccc4cc(C5CCNCC5)ccc4n3)c(O)c(F)c2n1
metric.name: pIC50
observed: > 7.00
--
compound: Cc1cn2nc(-c3ccc4nc(N5CCC(NC(C)(C)C)C5)ccc4n3)cc(C)c2n1 (centres unmarked)
metric.name: pIC50
observed: > 7.00
--
compound: Cn1cc2cc(-c3ccc4nc(N5CCC(NC(C)(C)C)C5)ccc4n3)c(O)cc2n1 (centres unmarked)
metric.name: pIC50
observed: > 7.00
--
compound: CN[C@@H]1CCN(c2ccc3nc(-c4cc5cn(C)nc5cc4O)ccc3n2)C1
metric.name: pIC50
observed: > 7.00
--
compound: Cc1c(O)c(-c2ccc3nc(N4CC[C@@H](NC5(C)CC5)C4)ccc3n2)cc2cn(C)nc12 (single isomer, unassigned)
metric.name: pIC50
observed: > 7.00
--
compound: Cn1cc2cc(O)c(-c3ccc4nc(C5CCNCC5)ccc4n3)cc2n1
metric.name: pIC50
observed: 6.00 to 7.00

IN: Value lookup for pIC50; key = Cn1cc2cc(-c3ccc4nc(N5CCC(NC(C)(C)C)C5)ccc4n3)c(O)c(F)c2n1 (centres unmarked)
OUT: < 5.00

IN: Value lookup for pIC50; key = Cc1nc2cc(O)c(-c3ccc4nc(N5CCC(N)C5)ccc4n3)cc2o1 (centres unmarked)
OUT: > 7.00

IN: Value lookup for pIC50; key = O=C(Nc1cn[nH]c1)Nc1cc2nc(N3CCNCC3)ccc2cn1
OUT: < 5.00

IN: Value lookup for pIC50; key = Cc1cn2nc(-c3ccc4nc(N5CCC(NC(C)(C)C)C5)ccc4n3)cc2c(C)n1 (centres unmarked)
OUT: > 7.00

IN: Value lookup for pIC50; key = Cn1cc2cc(-c3ccc4nc(OC5CNC5)ccc4n3)c(O)cc2n1
OUT: 6.00 to 7.00

IN: Value lookup for pIC50; key = Cn1cc2cc(-c3ccc4nc(N5CCC56CCNCC6)ccc4n3)c(O)cc2n1
OUT: 6.00 to 7.00

IN: Value lookup for pIC50; key = Cn1cc2cc(-c3ccc4nc(N5CC[C@H](NCC(F)(F)F)C5)ccc4n3)c(O)cc2n1
OUT: 5.00 to 6.00

IN: Value lookup for pIC50; key = Cn1cc2cc(-c3ccc4nc(N5CCC(NC(C)(C)C)CC5)ccc4n3)c(O)cc2n1
OUT: < 5.00

IN: Value lookup for pIC50; key = Cc1c(O)c(-c2ccc3nc(N4CCC(NC5(C)CC5)C4)ccc3n2)cc2cn(C)nc12 (racemic)
OUT: > 7.00

###

Quick reference for IC50 among some compounds
Tested on: HTT mRNA
Experiment: Splicing assay (RT-qPCR) of HTT mRNA alternative junction (AJ) and canonical junction (CJ)
Assay type: cell-based
Conditions: decrease in CJ mRNA; A673 or K562 cells, 24 hours; read-out: HTT CJ IC50

IN: Query for HTT mRNA: what IC50 does the record show for Cn1cc2cc(-c3ccc4nc(C5CCNCC5)ccc4n3)ccc2n1 [Compound 184] ?
OUT: 1000 to 10000 nM

IN: Query for HTT mRNA: what IC50 does the record show for CC1CN(c2ccc3nc(-c4cc5cn(C)nc5cc4O)ccc3n2)CCN1 (stereo not drawn) [Compound 117] ?
OUT: 1000 to 10000 nM

###

Tested on: HTT mRNA
Experiment: Splicing assay (RT-qPCR) of HTT mRNA alternative junction (AJ) and canonical junction (CJ)
Assay type: cell-based
Settings: decrease in CJ mRNA; A673 or K562 cells, 24 hours; read-out: HTT CJ IC50
Description: Compounds described herein were used to modulate RNA transcript abundance in cells. The expression of a target mRNA was measured by detecting the formation of an exon-exon junction in the canonical transcript (CJ). A compound mediated exon-inclusion event was detected by observing an increase in formation of a new junction with an alternative exon (AJ). […] After treatment, the levels of the HTT mRNA targets were determined from each sample of cell lysate by cDNA synthesis followed by qPCR. […]
Where a name gives a salt, the structure may show the parent alone.
metric.name: IC50

IN: Query for HTT mRNA: what IC50 does the record show for Cc1nc2cc(O)c(-c3ccc4nc(N5CC[C@@H](NC(C)C)C5)ccc4n3)cc2o1 (single isomer, unassigned) ?
OUT: < 100 nM

IN: Query for HTT mRNA: what IC50 does the record show for CN1CC2(C1)CN(c1ccc3nc(-c4cc5cn(C)nc5cc4O)ccc3n1)C2 ?
OUT: < 100 nM

IN: Query for HTT mRNA: what IC50 does the record show for Cn1cc2cc(-c3ccc4nc(N5CCC(NC(C)(C)C)C5)ccc4n3)c(F)cc2n1 (centres unmarked) ?
OUT: > 10000 nM

IN: Query for HTT mRNA: what IC50 does the record show for Cn1cc2cc(O)c(-c3ccc4nc(C5CCNCC5)ccc4n3)cc2n1 ?
OUT: 1000 to 10000 nM

IN: Query for HTT mRNA: what IC50 does the record show for Cn1cc2cc(-c3ccc4nc(N5CC[C@H](NC6COC6)C5)ccc4n3)c(O)cc2n1 (stereo in doubt) ?
OUT: 1000 to 10000 nM

IN: Query for HTT mRNA: what IC50 does the record show for Cn1cc2cc(-c3ccc4nc(N5CCN6CCCC6C5)ccc4n3)c(O)cc2n1 (centres unmarked) ?
OUT: 1000 to 10000 nM

IN: Query for HTT mRNA: what IC50 does the record show for Cn1cc2cc(-c3ccc4cc(C5CCNCC5)c(F)cc4n3)c(O)cc2n1 ?
OUT: > 10000 nM

IN: Query for HTT mRNA: what IC50 does the record show for Cc1cn2cc(-c3ccc4nc(C5CCNCC5)ccc4n3)c(O)c(C)c2n1 [Compound 151, hydrochloride] ?
OUT: 100 to 1000 nM

###

System: HTT mRNA
Test: Splicing assay (RT-qPCR) of HTT mRNA alternative junction (AJ) and canonical junction (CJ)
Type: cell-based
Conditions: decrease in CJ mRNA; A673 or K562 cells, 24 hours; read-out: HTT CJ IC50
metric.name: IC50

Recorded IC50, per entry:
molecule: Cc1nc2cc(O)c(-c3ccc4nc(N5CC[C@@H](NC(C)(C)C)C5)ccc4n3)cc2o1 [Compound 210]
target.desc: HTT mRNA
IC50: < 100 nM
//
molecule: Cn1cc2cc(-c3ccc4nc(N5CC(NC(C)(C)C)C5)ccc4n3)c(O)cc2n1 [Compound 165]
target.desc: HTT mRNA
IC50: 1000 to 10000 nM
//
molecule: COc1cc2nn(C)cc2cc1-c1ccc2c(F)c(C3CCNCC3)ccc2n1 [Compound 143]
target.desc: HTT mRNA
IC50: > 10000 nM
//
molecule: Cc1cn2cc(-c3ccc4nc(N5CCC(NC(C)(C)C)C5)ccc4n3)nc(C)c2n1 (centres unmarked) [Compound 206]
target.desc: HTT mRNA
IC50: 1000 to 10000 nM
//
molecule: Cn1cc2cc(-c3ccc4nc(N5CC6(CNC6)C5)ccc4n3)c(O)cc2n1 [Compound 124]
target.desc: HTT mRNA
IC50: < 100 nM

IN: Value lookup for IC50; key = Cc1nc2cc(O)c(-c3ccc4nc(N5CC[C@H](NC(C)C)C5)ccc4n3)cc2o1 (single isomer, unassigned) [Compound 233]
OUT: < 100 nM

IN: Value lookup for IC50; key = Cn1cc2cc(-c3ccc4c(F)c(C5CCNCC5)ccc4n3)c(O)cc2n1 [Compound 115]
OUT: 1000 to 10000 nM

IN: Value lookup for IC50; key = Cn1cc2cc(-c3ccc4nc(N5CC[C@H](N[C@H]6C[C@H](F)C6)C5)ccc4n3)c(O)cc2n1 [Compound 247]
OUT: < 100 nM

IN: Value lookup for IC50; key = Cn1cc2cc(-c3ccc4nc(N5CC[C@H](NCC(F)(F)F)C5)ccc4n3)c(O)cc2n1 [Compound 182]
OUT: 1000 to 10000 nM

IN: Value lookup for IC50; key = Cn1cc2cc(-c3ccc4cc(C5CCNCC5)ccc4n3)c(O)cc2n1 [Compound 109]
OUT: < 100 nM

IN: Value lookup for IC50; key = Cc1cn2cc(-c3ccc4nc(C5CCNCC5)ccc4n3)c(O)cc2n1 [Compound 149]
OUT: > 10000 nM

IN: Value lookup for IC50; key = Cn1cc2nc(-c3ccc4nc(C5CCNCC5)ccc4n3)ccc2n1 [Compound 199]
OUT: 100 to 1000 nM

IN: Value lookup for IC50; key = CC1CN(c2ccc3nc(-c4cc5cn(C)nc5cc4O)ccc3n2)CCN1C (centres unmarked) [Compound 118]
OUT: 1000 to 10000 nM

IN: Value lookup for IC50; key = Cn1cc2cc(-c3ccc4nc(N5CC[C@H](NCC6CC6)C5)ccc4n3)c(O)cc2n1 [Compound 194]
OUT: < 100 nM

IN: Value lookup for IC50; key = Cc1nc(-c2ccc3nc(N4CCC(NC(C)(C)C)C4)ccc3n2)cc2cn(C)nc12 (centres unmarked) [Compound 208]
OUT: > 10000 nM

IN: Value lookup for IC50; key = Cn1cc2cc(-c3ccc4nc(C5CCNCC5)ccc4n3)c(C(F)F)cc2n1 [Compound 196]
OUT: > 10000 nM

IN: Value lookup for IC50; key = Cn1cc2cc(-c3ccc4nc(C5CCNCC5)ccc4n3)c(O)cc2n1 [Compound 100]
OUT: < 100 nM
